- assayed_system: HLA-A*11:01
- experimental_protocol: IEDB peptide-MHC binding, purified MHC/direct/fluorescence; filed as Kd, often an IC50 or EC50 that approximates it; bounds were set here for any values at or beyond the usual limits of such assays
- protocol_conditions: source organism: Mammarenavirus lassaense
experimental_readout: Kd

Noted Kd for SHGIDVTDL , tested on HLA-A*11:01: ≥ 20 µM

====

- assayed_system: HLA-B*48:01
- experimental_protocol: IEDB peptide-MHC binding, purified MHC/competitive/fluorescence; filed as Kd, often an IC50 or EC50 that approximates it; bounds were set here for any values at or beyond the usual limits of such assays
- protocol_conditions: source organism: Escherichia coli B171
experimental_readout: Kd

Kd for HLA-B*48:01 with input RQNLSSSEL equals 192 nM
